System: Mus musculus
Method: Effective dose administered orally (po) to 19-21-g random sex ICR mice at 1 hr and 5 hr intervals after intraperitoneal administration of Streptococcus pneumoniae
Assay type: functional
Recorded metric: ED50

{"Chemical smiles": "O=C(Cc1csc2ccccc12)N[C@@H]1C(=O)N2C(C(=O)O)=CCS[C@H]12", "Readout value": ">10 2mg kg-1"}
{"Chemical smiles": "O=C(CSc1cc(Cl)ccc1Cl)N[C@@H]1C(=O)N2C(C(=O)O)=C(Cl)CS[C@H]12", "Readout value": "> 25 mg/kg"}
{"Chemical smiles": "Nc1nc2cc(CC(=O)N[C@@H]3C(=O)N4C(C(=O)O)=C(Cl)CS[C@H]34)ccc2s1", "Readout value": "> 10 mg/kg"}
{"Chemical smiles": "C=CC1=C(C(=O)O)N2C(=O)[C@@H](NC(=O)Cc3csc4ccccc34)[C@H]2SC1", "Readout value": ">16 2mg kg-1"}

====

ED50 listing for selected molecules.
Tested on: Mus musculus
Method: Effective dose administered orally (po) to 19-21-g random sex ICR mice at 1 hr and 5 hr intervals after intraperitoneal Staphylococcus aureus
Type: functional

{"Molecule": "CC1(C)S[C@@H]2[C@H](NC(=O)COc3ccccc3)C(=O)N2[C@H]1C(=O)O [PENICILLIN V]", "Qualifier sign": "=", "ED50 (mg/kg)": 0.46}
{"Molecule": "O=C(CSc1cc(Cl)ccc1Cl)N[C@@H]1C(=O)N2C(C(=O)O)=C(Cl)CS[C@H]12", "Qualifier sign": "=", "ED50 (mg/kg)": 7.7}
{"Molecule": "Nc1nc2cc(CC(=O)N[C@@H]3C(=O)N4C(C(=O)O)=C(Cl)CS[C@H]34)ccc2s1", "Qualifier sign": ">", "ED50 (mg/kg)": 10}

====

System: Streptococcus pyogenes
Method: Minimum inhibitory concentration against Streptococcus pyogenes
Format: functional
log10(MIC) listing for selected molecules.
Recorded metric: log10(MIC) (log10 of the value in µg/mL)

{"Chemical smiles": "O=C(CSc1nc[nH]n1)N[C@@H]1C(=O)N2C(C(=O)O)=C(Cl)CS[C@H]12", "Measurement target": "Streptococcus pyogenes", "Readout value": -0.30}
{"Chemical smiles": "COC1=C(C(=O)O)N2C(=O)[C@@H](NC(=O)Cc3csc4ccccc34)[C@H]2SC1", "Measurement target": "Streptococcus pyogenes", "Readout value": -0.60}
{"Chemical smiles": "O=C(Cc1csc2ccccc12)N[C@@H]1C(=O)N2C(C(=O)O)=CCS[C@H]12", "Measurement target": "Streptococcus pyogenes", "Readout value": -1.22}
{"Chemical smiles": "O=C(Cc1ccc(Cl)cc1)N[C@@H]1C(=O)N2C(C(=O)O)=C(Cl)CS[C@H]12", "Measurement target": "Streptococcus pyogenes", "Readout value": -1.22}
{"Chemical smiles": "O=C(Cc1csc2ccc(Cl)cc12)N[C@@H]1C(=O)N2C(C(=O)O)=CCS[C@H]12", "Measurement target": "Streptococcus pyogenes", "Readout value": -1.52}
{"Chemical smiles": "COc1ccc(CC(=O)N[C@@H]2C(=O)N3C(C(=O)O)=C(Cl)CS[C@H]23)cc1OC", "Measurement target": "Streptococcus pyogenes", "Readout value": -0.52}
{"Chemical smiles": "C=CC1=C(C(=O)O)N2C(=O)[C@@H](NC(=O)Cc3csc4ccccc34)[C@H]2SC1", "Measurement target": "Streptococcus pyogenes", "Readout value": -1.82}
{"Chemical smiles": "Nc1ccc(CC(=O)N[C@@H]2C(=O)N3C(C(=O)O)=C(Cl)CS[C@H]23)cc1", "Measurement target": "Streptococcus pyogenes", "Readout value": -1.22}
{"Chemical smiles": "O=Cc1ccc(OCC(=O)N[C@@H]2C(=O)N3C(C(=O)O)=C(Cl)CS[C@H]23)cc1", "Measurement target": "Streptococcus pyogenes", "Readout value": -1.82}
{"Chemical smiles": "COc1ccccc1CC(=O)N[C@@H]1C(=O)N2C(C(=O)O)=C(Cl)CS[C@H]12", "Measurement target": "Streptococcus pyogenes", "Readout value": 0.00}
{"Chemical smiles": "Nc1nc2cc(CC(=O)N[C@@H]3C(=O)N4C(C(=O)O)=C(Cl)CS[C@H]34)ccc2s1", "Measurement target": "Streptococcus pyogenes", "Readout value": -1.22}
{"Chemical smiles": "Cc1nc(CC(=O)N[C@@H]2C(=O)N3C(C(=O)O)=C(Cl)CS[C@H]23)c(-c2ccccc2)s1", "Measurement target": "Streptococcus pyogenes", "Readout value": -1.82}
{"Chemical smiles": "O=C(CSc1nccs1)N[C@@H]1C(=O)N2C(C(=O)O)=C(Cl)CS[C@H]12", "Measurement target": "Streptococcus pyogenes", "Readout value": -0.60}
{"Chemical smiles": "COc1ccc(OCC(=O)N[C@@H]2C(=O)N3C(C(=O)O)=C(Cl)CS[C@H]23)cc1", "Measurement target": "Streptococcus pyogenes", "Readout value": -1.22}
{"Chemical smiles": "CO/N=C/c1ccc(OCC(=O)N[C@@H]2C(=O)N3C(C(=O)O)=C(Cl)CS[C@H]23)cc1", "Measurement target": "Streptococcus pyogenes", "Readout value": -1.52}
{"Chemical smiles": "COc1ccc(CC(=O)N[C@@H]2C(=O)N3C(C(=O)O)=C(Cl)CS[C@H]23)cc1", "Measurement target": "Streptococcus pyogenes", "Readout value": -0.90}
{"Chemical smiles": "O=C(Cc1noc(C(Cl)(Cl)Cl)n1)N[C@@H]1C(=O)N2C(C(=O)O)=CCS[C@H]12", "Measurement target": "Streptococcus pyogenes", "Readout value": 0.30}

====

Test system: Streptococcus pneumoniae
Method: Minimum inhibitory concentration against Streptococcus pneumoniae
Assay type: functional
MIC listing for selected compounds.

{"Chemical smiles": "O=C(Cc1ccc(Cl)cc1)N[C@@H]1C(=O)N2C(C(=O)O)=C(Cl)CS[C@H]12", "MIC": "0.125 µg/mL"}
{"Chemical smiles": "Nc1nc(CC(=O)N[C@@H]2C(=O)N3C(C(=O)O)=C(Cl)CS[C@H]23)c(-c2ccccc2)s1", "MIC": "0.03 µg/mL"}
{"Chemical smiles": "Nc1nc2cc(CC(=O)N[C@@H]3C(=O)N4C(C(=O)O)=C(Cl)CS[C@H]34)ccc2s1", "MIC": "0.06 µg/mL"}
{"Chemical smiles": "COc1ccccc1CC(=O)N[C@@H]1C(=O)N2C(C(=O)O)=C(Cl)CS[C@H]12", "MIC": "1 µg/mL"}
{"Chemical smiles": "Nc1ccc(CC(=O)N[C@@H]2C(=O)N3C(C(=O)O)=C(Cl)CS[C@H]23)cc1", "MIC": "0.125 µg/mL"}
{"Chemical smiles": "CO/N=C/c1ccc(OCC(=O)N[C@@H]2C(=O)N3C(C(=O)O)=C(Cl)CS[C@H]23)cc1", "MIC": "0.06 µg/mL"}
{"Chemical smiles": "O=C(Cc1ccccc1)N[C@@H]1C(=O)N2C(C(=O)O)=C(Cl)CS[C@H]12", "MIC": "0.125 µg/mL"}
{"Chemical smiles": "COc1ccc(CC(=O)N[C@@H]2C(=O)N3C(C(=O)O)=C(Cl)CS[C@H]23)cc1OC", "MIC": "0.06 µg/mL"}
{"Chemical smiles": "COc1ccc(CC(=O)N[C@@H]2C(=O)N3C(C(=O)O)=C(Cl)CS[C@H]23)cc1", "MIC": "0.125 µg/mL"}
{"Chemical smiles": "Nc1nc(CC(=O)N[C@@H]2C(=O)N3C(C(=O)O)=C(Cl)CS[C@H]23)cs1", "MIC": "0.25 µg/mL"}
{"Chemical smiles": "O=C(Cc1ccc(O)cc1)N[C@@H]1C(=O)N2C(C(=O)O)=C(Cl)CS[C@H]12", "MIC": "0.25 µg/mL"}
{"Chemical smiles": "Cc1nc(CC(=O)N[C@@H]2C(=O)N3C(C(=O)O)=C(Cl)CS[C@H]23)c(-c2ccccc2)s1", "MIC": "0.06 µg/mL"}
{"Chemical smiles": "COc1ccc(OCC(=O)N[C@@H]2C(=O)N3C(C(=O)O)=C(Cl)CS[C@H]23)cc1", "MIC": "0.125 µg/mL"}
{"Chemical smiles": "O=C(Cc1csc2ccccc12)N[C@@H]1C(=O)N2C(C(=O)O)=CCS[C@H]12", "MIC": "0.25 µg/mL"}
{"Chemical smiles": "O=C(Cc1noc(C(Cl)(Cl)Cl)n1)N[C@@H]1C(=O)N2C(C(=O)O)=C(Cl)CS[C@H]12", "MIC": "0.5 µg/mL"}
{"Chemical smiles": "O=C(CSc1nc[nH]n1)N[C@@H]1C(=O)N2C(C(=O)O)=C(Cl)CS[C@H]12", "MIC": "2 µg/mL"}
{"Chemical smiles": "COC1=C(C(=O)O)N2C(=O)[C@@H](NC(=O)Cc3csc4ccccc34)[C@H]2SC1", "MIC": "0.5 µg/mL"}
{"Chemical smiles": "O=C(Cc1ccc(F)cc1)N[C@@H]1C(=O)N2C(C(=O)O)=C(Cl)CS[C@H]12", "MIC": "0.125 µg/mL"}
